Record form. Attribute: cytotoxicity at 70.5 h. Fill in for each entry.
ASSAY_REMARKS: Human HepG2 cell viability assay in 384 well format
Assay type: toxicity, cell-based
Design: dose 125 nL, time 70.5 hour; concentration not given beside the values
TEST_CONTEXT: HepG2 cells, read-out: Inhibition
Please state the value followed by its unit.

Could you share which cytotoxicity at 70.5 h value was measured for CN1CCN([C@@H]2CN(C(=O)CCOc3ccccc3)C[C@H]2O)CC1 ?
10.8%

Could you share which cytotoxicity at 70.5 h value was measured for O=C(C1SCCc2sccc21)N1CCC(O)CC1 (configuration not stated) ?
1.7%

Could you share which cytotoxicity at 70.5 h value was measured for Cc1c(Br)cccc1C(=O)Nc1cc(C(N)=O)n(C)c1 ?
-6.66%

Could you share which cytotoxicity at 70.5 h value was measured for Cc1nnc(SCC(=O)N2CCC3(CC2)c2ccccc2CC3O)o1 (configuration not stated) ?
20.7%

Could you share which cytotoxicity at 70.5 h value was measured for CN(C)Cc1nnc(C2CCN(C(=O)CCc3cccs3)CC2)n1C ?
-8.36%

Could you share which cytotoxicity at 70.5 h value was measured for O=C(NCCNc1ncccn1)c1ccc(Cl)s1 ?
-5.84%

Could you share which cytotoxicity at 70.5 h value was measured for Cc1cc(-n2cncn2)n2ncnc2n1 ?
-2.11%

Could you share which cytotoxicity at 70.5 h value was measured for CCN1CC(CN(C)Cc2nc(-c3ccc(F)cc3)oc2C)CC1=O (configuration not stated) ?
4.29%

Could you share which cytotoxicity at 70.5 h value was measured for COc1cccc(CNCc2cccc(Cl)c2)c1O ?
-4.96%

Could you share which cytotoxicity at 70.5 h value was measured for CC(C)C(=O)NC1CCCc2nc(N3CCOCC3)ncc21 (configuration not stated) ?
-0.959%

Could you share which cytotoxicity at 70.5 h value was measured for COc1ccc2cc(CNCc3c(C)nn(C)c3N(C)C)ccc2c1 ?
23%

Could you share which cytotoxicity at 70.5 h value was measured for O=C(NCc1ccccc1CO)Nc1ccc2c(c1)CCO2 ?
7.29%

###

Record form. Attribute: cytotoxicity at 70.5 h. Fill in for each entry.
ASSAY_REMARKS: Human HepG2 cell viability assay in 384 well format
Assay type: toxicity, cell-based
Parameters: dose 125 nL, time 70.5 hour; concentration not given beside the values
TEST_CONTEXT: HepG2 cells, read-out: Inhibition

Could you share which cytotoxicity at 70.5 h value was measured for O=C(Nc1cc(C(F)(F)F)c[nH]c1=O)N1CCCSCC1 ?
-8.3%

Could you share which cytotoxicity at 70.5 h value was measured for O=S(=O)(c1cccs1)N1CCCn2cnc(CN3CCCC3)c2C1 ?
23.3%

Could you share which cytotoxicity at 70.5 h value was measured for CC(C)c1nnc(CN2CCN(CC(O)c3ccccc3)CC2)o1 (stereo unspecified) ?
-0.811%

Could you share which cytotoxicity at 70.5 h value was measured for O=C(NCc1ccc2c(c1)OCCO2)N1CCC(CO)CC1 ?
4.7%

Could you share which cytotoxicity at 70.5 h value was measured for Cc1ccc(C(=O)N2CCC(n3cc(CO)nn3)CC2)cn1 ?
11%

Could you share which cytotoxicity at 70.5 h value was measured for O=C(NCC1CC(=O)N(CCc2ccccc2)C1)c1ccc[nH]1 (stereo unspecified) ?
-8.75%

Could you share which cytotoxicity at 70.5 h value was measured for O=C(C1CC1)N1CCCC1C1CCN(Cc2ccccc2)CC1 (stereo unspecified) ?
1.42%

Could you share which cytotoxicity at 70.5 h value was measured for CS(=O)(=O)NC1CC(=O)N(c2ccccc2Cl)C1 (stereo unspecified) ?
-27%

Could you share which cytotoxicity at 70.5 h value was measured for O=C(NC[C@H]1OC[C@@H]2CCN(C3CCOCC3)C[C@@H]21)c1ccncc1 ?
-3%

Could you share which cytotoxicity at 70.5 h value was measured for Fc1cccnc1O[C@@H]1CC[C@H]2[C@H]1OCCN2Cc1nccs1 ?
-2.76%

Could you share which cytotoxicity at 70.5 h value was measured for COCCN1CC(=O)N2CC[C@@H](O)C[C@H]2C1=O ?
28.2%

###

ASSAY_REMARKS: Human HepG2 cell viability assay in 384 well format
Format: toxicity, cell-based
Set-up: dose 125 nL, time 70.5 hour; concentration not given beside the values
TEST_CONTEXT: HepG2 cells, read-out: Inhibition
Record form. Attribute: cytotoxicity at 70.5 h. Fill in for each entry.
Numbers only here, please. The scale is %.

Could you share which cytotoxicity at 70.5 h value was measured for Cc1ccc(CN2Cc3ccnn3CC(COCc3cccnc3)C2)o1 (stereo unspecified) ?
-5.79

Could you share which cytotoxicity at 70.5 h value was measured for COc1nn(C)cc1C(=O)NCC(=O)NCc1ccccn1 ?
-11

Could you share which cytotoxicity at 70.5 h value was measured for CCCN1CCC2(CC1)COc1ccccc1S(=O)(=O)N(CC1CC1)C2 ?
-4.67

Could you share which cytotoxicity at 70.5 h value was measured for Cc1cc(CN2CCN(CC(=O)NC3(C#N)CCCCC3)CC2)on1 ?
2.07

Could you share which cytotoxicity at 70.5 h value was measured for Cc1ccc(NCc2cnc3n2CCN(c2ncccn2)CC3)nn1 ?
-2.11

Could you share which cytotoxicity at 70.5 h value was measured for O[C@H]1COCCN(Cc2cccc3c2OCO3)C1 ?
-4.2

###

Record form. Attribute: cytotoxicity at 70.5 h. Fill in for each entry.
ASSAY_REMARKS: Human HepG2 cell viability assay in 384 well format
Assay type: toxicity, cell-based
Design: dose 125 nL, time 70.5 hour; concentration not given beside the values
TEST_CONTEXT: HepG2 cells, read-out: Inhibition
Numbers only here, please. The scale is %.

Could you share which cytotoxicity at 70.5 h value was measured for CCC(NS(=O)(=O)N1CCOCC1)c1ccccc1OC (configuration not stated) ?
-2.95

Could you share which cytotoxicity at 70.5 h value was measured for CC1(C)CC(=O)c2cnc3nc(N4CCCCC4)nc(O)c3c2C1 ?
-11

Could you share which cytotoxicity at 70.5 h value was measured for CC(=O)N1CCN(C(=O)CCCc2nnc(-c3ccccc3)o2)CC1 ?
-2.32

Could you share which cytotoxicity at 70.5 h value was measured for Cc1nc(CN2CCN(C(=O)c3sccc3C)CC2)cs1 ?
-11.5

Could you share which cytotoxicity at 70.5 h value was measured for Cc1ccc(NC(=O)c2ccc(N3CCCCC3)nn2)c(Cl)c1 ?
3.33

Could you share which cytotoxicity at 70.5 h value was measured for CN1CCOC(C(=O)Nc2ccc3[nH]nnc3c2)C1 (configuration not stated) ?
-3.75

Could you share which cytotoxicity at 70.5 h value was measured for Cc1c(CCC(=O)Nc2ccc(Cl)cn2)cnn1C ?
-1.57

Could you share which cytotoxicity at 70.5 h value was measured for CC(=O)N1C[C@H](NS(=O)(=O)N2CCOCC2)[C@@H](c2ccc(C)o2)C1 ?
-7.85

Could you share which cytotoxicity at 70.5 h value was measured for O=C(CN1C(=O)c2ccccc2C1=O)N1CCOC2(CCOCC2)C1 ?
3.73

Could you share which cytotoxicity at 70.5 h value was measured for COc1ccc(C(=O)N2CCCC(NC(=O)C(C)C)C2)c(O)c1 (configuration not stated) ?
2.73

Could you share which cytotoxicity at 70.5 h value was measured for Cc1ccc(C(=O)NCc2ccnc(C3CCCOC3)n2)s1 (configuration not stated) ?
10.5

Could you share which cytotoxicity at 70.5 h value was measured for COc1cccc(COCC(=O)N2CCCC(n3ccnc3)C2)c1 (configuration not stated) ?
-11.9

Could you share which cytotoxicity at 70.5 h value was measured for O=C(CSc1nnc(N2CCOCC2)s1)NC(=O)Nc1ccccc1 ?
-4.91

Could you share which cytotoxicity at 70.5 h value was measured for CN(c1ccc(F)cc1)S(=O)(=O)c1cc2c(c(C(=O)O)c1)OCCO2 ?
-10.5

Could you share which cytotoxicity at 70.5 h value was measured for COc1ccc(CCC(=O)NC2CCC(O)CC2)cc1OC (configuration not stated) ?
-4.91

Could you share which cytotoxicity at 70.5 h value was measured for O=C1CO[C@H]2CN(Cc3c[nH]c4ccccc34)C[C@H]2N1 ?
7.73

Could you share which cytotoxicity at 70.5 h value was measured for CN(c1ncccc1C#N)C1CCN(Cc2ccncc2)CC1 ?
-3.31

Could you share which cytotoxicity at 70.5 h value was measured for CCC(=O)N1CCC(NC2CCCC2)C1 (configuration not stated) ?
-7.41

Could you share which cytotoxicity at 70.5 h value was measured for CC(C)(C)c1coc([C@@H]2COCCN2CC2CC2)n1 ?
-0.839

Could you share which cytotoxicity at 70.5 h value was measured for Cc1ccc(NC2CCN(C(=O)C(C)n3cncn3)CC2)nn1 (configuration not stated) ?
-0.916

Could you share which cytotoxicity at 70.5 h value was measured for Nc1nc(C2CCN(C(=O)c3cscn3)CC2)cs1 ?
-18.4

Could you share which cytotoxicity at 70.5 h value was measured for CCS(=O)(=O)CCN1CCC(N(C)Cc2noc(C(C)C)n2)C1 (configuration not stated) ?
-5.52

Could you share which cytotoxicity at 70.5 h value was measured for CN1CC(c2ccccc2)CC12CCN(C(=O)c1ccc(Cl)cn1)CC2 (configuration not stated) ?
19.6

Could you share which cytotoxicity at 70.5 h value was measured for Cc1ccc(N2CCCC(N(C)Cc3c(C)noc3C)C2)nn1 (configuration not stated) ?
25.3

Could you share which cytotoxicity at 70.5 h value was measured for Cc1ccc(C(=O)N2CCN(Cc3ccc(C#N)cc3)CC2)n1C ?
-2.38

Could you share which cytotoxicity at 70.5 h value was measured for COc1ccc(CN(C)c2ncc(S(N)(=O)=O)s2)c(OC)c1 ?
-4.13

Could you share which cytotoxicity at 70.5 h value was measured for CCCn1ccc(C(=O)Nc2ccc3c(c2)C(C)(C)C(=O)N3C)n1 ?
13.3

Could you share which cytotoxicity at 70.5 h value was measured for COC(=O)CCC(=O)N1CCC2(CN(Cc3ccccc3)C2)C1 ?
21

Could you share which cytotoxicity at 70.5 h value was measured for N#CC1CCN(C(=O)NCCc2ccc(Cl)s2)CC1 ?
-3.5

Could you share which cytotoxicity at 70.5 h value was measured for CCCNC(=O)Cn1cc(OC)c(=O)cc1CSc1nc(C)cc(C)n1 ?
-13.1

Could you share which cytotoxicity at 70.5 h value was measured for c1ccc2c(c1)CCN(c1nc(N3CCOCC3)c3nn[nH]c3n1)C2 ?
-0.0594

Could you share which cytotoxicity at 70.5 h value was measured for O=C([C@H]1COC[C@H]2CN(Cc3ccco3)C[C@H]21)N1CCCO1 ?
5.11

Could you share which cytotoxicity at 70.5 h value was measured for COc1c(NS(=O)(=O)c2cc(C)ccc2C)c(C)nn1C ?
-63.5

Could you share which cytotoxicity at 70.5 h value was measured for C[C@H]1C[C@H]2CN(C(=O)CCOc3ccccc3)CC[C@H]2O1 ?
-1.04

Could you share which cytotoxicity at 70.5 h value was measured for Cc1ccc(-c2ccnc3cc(CC(=O)N4CCN(C)CC4)nn23)cc1 ?
0.106

Could you share which cytotoxicity at 70.5 h value was measured for COc1cc(-c2n[nH]c(CN)n2)cc(OC)c1OC ?
23.8

Could you share which cytotoxicity at 70.5 h value was measured for COCc1noc(-c2ccc(N(C)Cc3c(C)n[nH]c3C)nc2)n1 ?
-5.36

Could you share which cytotoxicity at 70.5 h value was measured for COC(C(=O)N1CCN(c2cccc(Cl)c2)C(=O)C1)c1ccccc1 (configuration not stated) ?
-7.64

Could you share which cytotoxicity at 70.5 h value was measured for COc1ccc(C(=O)CCC(=O)NCc2c(C)noc2C)cc1F ?
23.7

Could you share which cytotoxicity at 70.5 h value was measured for O=S(=O)(C1CC1)N1Cc2nccn2CC(Cn2cncn2)C1 (configuration not stated) ?
-4.4

Could you share which cytotoxicity at 70.5 h value was measured for CC(=O)N1CCCN(C(C(=O)O)c2ccccc2OC(F)(F)F)CC1 (configuration not stated) ?
-7.53

Could you share which cytotoxicity at 70.5 h value was measured for Cc1nc(CN(CCc2ccccc2)C2CCN(C)CC2)no1 ?
-10.3

Could you share which cytotoxicity at 70.5 h value was measured for CNC(=O)C1(CCCc2ccccn2)CN(Cc2nccn2C)C1 ?
-9.75

Could you share which cytotoxicity at 70.5 h value was measured for Cc1ccc(CNC(=O)c2nc3c(o2)CN(c2ncccn2)C3)o1 ?
-2.56

Could you share which cytotoxicity at 70.5 h value was measured for O=C(c1ncn2c1CNS(=O)(=O)c1ccccc1-2)N1CCOCC1 ?
13.4

Could you share which cytotoxicity at 70.5 h value was measured for C[C@@H]1CN(CC(=O)NCc2ccccn2)C[C@]1(C)O ?
-1.62

Could you share which cytotoxicity at 70.5 h value was measured for CNc1nc(CN2C[C@@H](NC(C)=O)[C@H](c3ccc(C)o3)C2)cs1 ?
-16.5
